Molecular target: F508delCFTR (Homo sapiens, UniProt P13569, DEL508-508)
Construct: expressed in transfected cells; host or cells: CFBE41o- human lung-derived epithelial cells (CFBE4lo-F508delCFTR-HRP), doxycycline-inducible
Sequence (P13569 with tags, fused parts or gaps DEL508-508): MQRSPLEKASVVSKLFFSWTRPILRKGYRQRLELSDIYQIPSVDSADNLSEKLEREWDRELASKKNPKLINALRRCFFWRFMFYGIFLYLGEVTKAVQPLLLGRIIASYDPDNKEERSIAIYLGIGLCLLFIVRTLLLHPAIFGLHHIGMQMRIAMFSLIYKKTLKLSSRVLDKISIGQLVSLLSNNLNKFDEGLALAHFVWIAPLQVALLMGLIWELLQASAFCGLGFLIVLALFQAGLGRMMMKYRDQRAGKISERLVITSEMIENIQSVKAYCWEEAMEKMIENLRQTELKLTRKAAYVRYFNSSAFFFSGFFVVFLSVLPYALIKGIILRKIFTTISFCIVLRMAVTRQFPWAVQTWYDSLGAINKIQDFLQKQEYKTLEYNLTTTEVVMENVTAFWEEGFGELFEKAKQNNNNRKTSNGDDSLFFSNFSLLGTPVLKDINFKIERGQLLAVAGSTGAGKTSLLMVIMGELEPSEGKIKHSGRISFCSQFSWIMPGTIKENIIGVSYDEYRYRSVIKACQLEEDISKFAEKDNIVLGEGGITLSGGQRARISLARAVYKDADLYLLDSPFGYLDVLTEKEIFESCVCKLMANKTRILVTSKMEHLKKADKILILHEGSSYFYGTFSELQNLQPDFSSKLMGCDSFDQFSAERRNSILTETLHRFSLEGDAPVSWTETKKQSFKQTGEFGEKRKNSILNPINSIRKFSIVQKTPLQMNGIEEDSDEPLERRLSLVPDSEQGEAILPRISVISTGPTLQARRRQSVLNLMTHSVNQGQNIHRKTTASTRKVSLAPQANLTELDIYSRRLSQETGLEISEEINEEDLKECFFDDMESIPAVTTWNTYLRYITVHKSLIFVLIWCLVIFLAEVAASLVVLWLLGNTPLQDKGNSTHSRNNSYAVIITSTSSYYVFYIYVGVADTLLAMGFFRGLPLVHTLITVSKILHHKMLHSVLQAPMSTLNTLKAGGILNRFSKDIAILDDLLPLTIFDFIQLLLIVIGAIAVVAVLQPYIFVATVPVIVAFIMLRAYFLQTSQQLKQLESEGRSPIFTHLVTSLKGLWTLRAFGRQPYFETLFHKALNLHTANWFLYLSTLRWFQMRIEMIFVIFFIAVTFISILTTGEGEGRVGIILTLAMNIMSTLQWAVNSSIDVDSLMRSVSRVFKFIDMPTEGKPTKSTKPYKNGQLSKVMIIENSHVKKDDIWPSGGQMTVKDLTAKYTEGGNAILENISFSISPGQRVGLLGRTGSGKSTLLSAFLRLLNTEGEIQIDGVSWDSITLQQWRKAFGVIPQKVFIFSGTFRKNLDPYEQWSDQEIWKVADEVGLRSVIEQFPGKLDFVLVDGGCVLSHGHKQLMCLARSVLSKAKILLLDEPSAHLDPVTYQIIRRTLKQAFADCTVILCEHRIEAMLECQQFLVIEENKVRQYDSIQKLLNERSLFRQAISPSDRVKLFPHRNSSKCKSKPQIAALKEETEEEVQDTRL
Assay: Cell Surface Expression-Horse Radish Peroxidase (CSE-HRP) Assay;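 also: co-corrector and positive control are both the same reference corrector at 2 µM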
Assay type: cell-based
Details: with co-corrector (2 μM); maximum at any tested concentration, normalized to on-plate positive control
TEST_READOUT: Maximum % activity (with co-corrector)

The cases that follow already have their Maximum % activity (with co-corrector) on record.
>  <COMPOUND>
COc1ccc(C(C)(C)C)cc1CN[C@H]1[C@H](C(C)(C)C)[C@@H](C(=O)O)N(C(=O)CC2CCCCC2)[C@H]1c1ccccc1

>  <TEST_READOUT>
Maximum % activity (with co-corrector)

>  <VAL>
+++ (≥350)

$$$$
>  <COMPOUND>
COc1ncc(C2CCC2)cc1CN[C@H]1[C@H](C(C)(C)C)[C@@H](C(=O)O)N(C(=O)C2Cc3ccccc3CO2)[C@H]1c1ccccc1 (stereo partly drawn)

>  <TEST_READOUT>
Maximum % activity (with co-corrector)

>  <VAL>
+++ (≥350)

$$$$
>  <COMPOUND>
COc1ccc(C(C)(C)C)cc1CN[C@H]1[C@H](C(C)(C)C)[C@@](C)(C(=O)O)N(C(=O)[C@H](OC)c2ccccc2)[C@H]1c1ccccc1

>  <TEST_READOUT>
Maximum % activity (with co-corrector)

>  <VAL>
++ (≥150 and <350)

$$$$
>  <COMPOUND>
COc1ncc(C2CCC2)cc1CN[C@H]1[C@H](C(C)(C)C)[C@@H](C(=O)O)N(C(=O)OC(C)C)[C@H]1c1cccnc1OC(C)C

>  <TEST_READOUT>
Maximum % activity (with co-corrector)

>  <VAL>
+++ (≥350)

$$$$
>  <COMPOUND>
COc1ncc(C2CCC2)cc1CN[C@H]1[C@H](C(C)(C)C)[C@@H](C(=O)O)N(C(=O)[C@@H]2CCCO2)[C@H]1c1ccccc1C(C)C

>  <TEST_READOUT>
Maximum % activity (with co-corrector)

>  <VAL>
+++ (≥350)

$$$$

Next item in the queue.
If you can, please state the reported Maximum % activity (with co-corrector) value of "COc1ccc(Cl)cc1CN[C@@H]1[C@@H](C(C)(C)C)[C@H](C(=O)O)N(C(=O)[C@H](OC)c2ccccc2)[C@@H]1c1ccccc1N(C)C" .
++ (≥150 and <350)

Source of measurements: patent US20180099931A1
